Just for reference, patent US20250313625A1 is where these values come from.

# assay-target: T1, human LAG3 ECD recombinant protein (plate coated, tag not stated) (human, UniProt P18627 23-450)
# T1 construct: extracellular domain
# T1 sequence (looked up): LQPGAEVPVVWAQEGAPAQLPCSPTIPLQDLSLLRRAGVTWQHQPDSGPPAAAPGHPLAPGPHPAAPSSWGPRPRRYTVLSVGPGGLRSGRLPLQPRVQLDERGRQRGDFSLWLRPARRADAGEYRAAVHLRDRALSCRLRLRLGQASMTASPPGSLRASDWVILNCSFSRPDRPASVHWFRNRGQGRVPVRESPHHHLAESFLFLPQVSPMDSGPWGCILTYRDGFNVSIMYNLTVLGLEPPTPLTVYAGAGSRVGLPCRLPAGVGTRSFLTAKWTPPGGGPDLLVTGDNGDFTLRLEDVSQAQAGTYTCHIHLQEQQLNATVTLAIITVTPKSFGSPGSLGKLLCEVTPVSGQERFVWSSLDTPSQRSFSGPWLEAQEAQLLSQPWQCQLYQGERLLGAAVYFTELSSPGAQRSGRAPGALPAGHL
# test: competitive ELISA format I: His-FGL1 binding to coated LAG3 ECD
measured-endpoint: Blocking ratio at 66.7 nM (%)
The reply should contain only the number, in %.

binder: 047c (antibody, human IgG4, V domains shown, human IgG4 S228P / kappa chimeric antibody; also called chimeric antibody 047; not shown: human kappa light chain constant region (pcDNA3.4-hIgGk vector)) VH: QVQLQQSGAELARPGASVKLSCKASGYSFTSYGVNWVKQRTGQGLEWIGEIYPRSGNTYYNERFGDKATLTADKSSSTAYMEIRSLTSEDSAVYFCARGGTYDGYYYAMDYWGQGTSVTVSS VL: DIVLTQSPASLAVSLGQRATISCRASESVDNFGSSFMHWYQQKPGQAPKLLIYRASNLESGIPARFSGSGSRTDFTLTINPVETDDVATYYCQQVNKDPRTFGGGTKLEIK
readout-number: 14

Turning now to a further binder:
Record request: Blocking ratio at 66.7 nM (%) value, item 015c (antibody, human IgG4, V domains shown, human IgG4 S228P / kappa chimeric antibody; also called chimeric antibody 015; not shown: human kappa light chain constant region (pcDNA3.4-hIgGk vector)) VH: EVQLQQSGPVLVKPGASVKLSCKASGFTFTDYYMNWVKLSHGKSLEWIGVINPFNGDTAYKQKFKGKATLTVDKSSSTAYMELNSLTSEDSAVYYCARDDGYYLYYFDSWGQGTTLTVSS VL: DIQMTQSPSSLSASLGERVSLTCRASQDIGSRLNWLQQEPDGTIKRLIYATSSLDSGVPKRFSGSRSGSDYSLTISSLDSEDFVVYYCLQYASSPPTFGAGTKLELK
43.6
